molecular target: T1, extracellular domain (ECD) of human TrkA protein, N-terminal flag tag and C-terminal His tag (PHA) (human, UniProt P04629 33-423); assay: BLI (Octet Red384), as in Example 4
T1 construct: Made in 293-F cells and purified by IMAC; also called TrkA ECD protein; TrkA (ECD); not shown: flag tag at the N-terminus (after the signal peptide); His tag at the C-terminus
T1 sequence (P04629 33-423): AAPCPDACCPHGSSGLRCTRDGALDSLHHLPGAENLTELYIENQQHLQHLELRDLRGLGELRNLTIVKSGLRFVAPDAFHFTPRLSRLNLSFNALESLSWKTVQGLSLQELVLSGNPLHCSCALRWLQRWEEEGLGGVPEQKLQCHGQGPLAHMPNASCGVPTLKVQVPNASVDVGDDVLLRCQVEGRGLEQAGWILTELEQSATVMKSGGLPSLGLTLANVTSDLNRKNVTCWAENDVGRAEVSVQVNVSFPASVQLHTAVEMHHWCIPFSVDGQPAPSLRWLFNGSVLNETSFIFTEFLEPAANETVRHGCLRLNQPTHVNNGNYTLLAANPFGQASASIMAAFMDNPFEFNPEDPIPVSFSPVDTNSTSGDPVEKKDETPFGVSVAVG
Consider the following binders; for each one, report its koff.
Quick note: unit goes after the number.

*Q* Please supply the value of reported koff for the item PHD48-08 (antibody, IgG4, V domains shown) VH: QVQLVQSGAEVKKPGASVKVSCKASGYTFTTYWMHWVRQAPGQGLEWIGTIYPGNSDSSNAQKFQGRVTLTADTSTSTAYMELSSLRSEDTAVYYCTRFYYEDWYFDVWGQGTTVTVSS VL: DIQMTQSPSSLSASVGDRVTITCRASSSVSYLYWFQQKPGKAPKPLIYRTSNLASGVPSRFSGSGSGTDYTLTISSLQPEDFATYYCQQYHSYPPTFGGGTKVEIK
*A* 0.000331 s⁻¹

*Q* Fill in reported koff for this entry: PHD48-01 (humanized muPHD48) (antibody, human IgG4, V domains shown) VH: QVQLVQSGAEVKKPGASVKVSCKASGYSFTTYWMHWVRQAPGQGLEWIGTIYPGNSDSSNNQKFKGRATLTADTSTSTAYMELSSLRSEDTAVYYCTRFYYEDWYFDVWGQGTMVTVSS VL: DIQMTQSPSSLSASVGDRVTITCSASSSVSYMYWFQQKPGKAPKPWIYRTSNLASGVPSRFSGSGSGTDYTLTISSLQPEDFATYYCQQYHSYPPTFGGGTKVEIK
*A* 0.000634 s⁻¹

*Q* Tell me its koff given chi-PHD49 (antibody, V domains shown, Chimeric: human IgG4 / human kappa constant regions (pCDNA3.4-hIgG4 and pCDNA3.4-hKappa vectors)) VH: QVQLQQSGAELARPGASVKLSCKASGYTFSSYWMQWVKQRPGQGLEWIGAIYPGDDDTIYTQKFKGKATLTADKSSSTAYMQLSSLASEDSAVYYCARNYDYQAWFAYWGQGTLVTVSA VL: QIVLTQSPALMSASPGEKVTMTCSASSSVSYMYWYQQKPRSSPKPWIYLTSNLASGVPARFSGSGSGTSYSLTISSMEAEDAATYYCQQWSSNPLTFGAGTKLELK as the entry.
*A* 0.000827 s⁻¹

*Q* Please report koff for the following binder: PHD49-11 (antibody, IgG4, V domains shown) VH: QVQLVQSGAEVKKPGSSVKVSCKASGYTFSSYWMQWVRQAPGQGLEWIGAIYPGDDDTIYTQKFKGRATITADKSTSTAYMELSSLRSEDTAVYYCARNYDYQAWFAYWGQGTLVTVSS VL: DIQMTQSPSSLSASVGDRVTITCRASSSVSYLYWYQQKPGKAPKPWIYLTSNLASGVPSRFSGSGSGTDYTLTISSLQPEDFATYYCQQWSSNPLTFGQGTKLEIK
*A* 0.00207 s⁻¹

Taken from patent US20240002516A1.
